experiment: Cmax in Sprague-Dawley rat at 5 mg/kg, po; assay type: ADME, organism-based; parameters: dose 5 mg/kg, route oral; settings: in vivo
Each record here notes measured Cmax.
The answer is to be given in ng/mL; state only the numeric part.

Here's what some known entries look like.
FC(F)(F)c1ccc(-c2cc(Nc3ccc4cccnc4c3)ncn2)cc1: 26
FC(F)(F)c1ccc(-c2cc(Oc3ccc4cccnc4c3)ncn2)cc1: 300

Please examine the following record next.
Prompt: // lookup Cmax for `CC(C)(C)c1ccc(-c2cc(Nc3ccc4cccnc4c3)ncn2)cc1`
Response: 34

====

assay: AUC (0-infinity) in Sprague-Dawley rat at 5 mg/kg, po; type: ADME, organism-based; parameters: time infinity, dose 5 mg/kg, route oral; conditions: plasma
# reported AUC(0-inf); entries follow
// return the numeric value with its unit appended

FC(F)(F)c1ccc(-c2cc(Nc3ccc4cccnc4c3)ncn2)cc1: 94 ng·h/mL
FC(F)(F)c1ccc(-c2cc(Oc3ccc4cccnc4c3)ncn2)cc1: 2040 ng·h/mL

API: the following record is the query input.
Prompt: What value of AUC(0-inf) has been recorded for this entry: `CC(C)(C)c1ccc(-c2cc(Nc3ccc4cccnc4c3)ncn2)cc1`
Response: 79 ng·h/mL
